Tested on: NCI-H522 (Lung Adenocarcinoma)
protocol.details: Bliss excess, mean over the matrix (fraction); higher = more synergy;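 also: after 72 h of two-drug dosing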
reported.metric: Bliss excess

For orientation, consider the following solved cases.
- CS(=O)(=O)CCNCc1ccc(-c2ccc3ncnc(Nc4ccc(OCc5cccc(F)c5)c(Cl)c4)c3c2)o1 [Lapatinib] + Cn1cnc2c(F)c(Nc3ccc(Br)cc3Cl)c(C(=O)NOCCO)cc21 [Selumetinib] (first compound max 10 µM, 7x7, partner max 10 µM): -0.0304
- C[C@@H](Nc1cc(F)cc(F)c1)c1cc(C(=O)N(C)C)cc2c(=O)cc(N3CCOCC3)oc12 [AZD8186] + CC(=O)c1c(C)c2cnc(Nc3ccc(N4CCNCC4)cn3)nc2n(C2CCCC2)c1=O [Palbociclib] (first compound max 10 µM, 7x7, partner max 10 µM): -0.0596
- Cc1cc2ncnn2cc1Nc1ncc2c(n1)n(C1CCOCC1)c(=O)n2C [AZD7648] + COc1cc([C@@H]2c3cc4c(cc3[C@@H](O[C@@H]3O[C@@H]5CO[C@@H](C)O[C@H]5[C@H](O)[C@H]3O)[C@H]3COC(=O)[C@H]23)OCO4)cc(OC)c1O [Etoposide] (first compound max 10 µM, 7x7, partner max 10 µM): 0.0178
- COc1cccc(OCCCN)c1-c1cc(Nc2cnc(C#N)cn2)n[nH]1 [Prexasertib] + CN(C)CCCOc1ccc(-c2ccc3ncc4c(c3c2)n(C2CCOCC2)c(=O)n4C)cn1 [AZD0156] (first compound max 1 µM, 7x7, partner max 1 µM): -0.0189
- CC1(C)CCC(CN2CCN(c3ccc(C(=O)NS(=O)(=O)c4ccc(NCC5CCOCC5)c([N+](=O)[O-])c4)c(Oc4cnc5[nH]ccc5c4)c3)CC2)=C(c2ccc(Cl)cc2)C1 [Venetoclax] + C[C@@H]1COCCN1C2=NC(=NC(=C2)C3(CC3)[S@](=N)(=O)C)C4=C5C=CNC5=NC=C4 [AZD6738] (first compound max 1 µM, 7x7, partner max 10 µM): -0.0099

Which measured Bliss excess value corresponds to COc1nnc2ccc(N3CCC(c4ccc(OCCN5CCN(C)C(=O)[C@H]5C)cc4)CC3)nn12 [AZD5153] + Cc1c2c(nn1C)CSCc1cc(n(C)n1)CSc1cc(c3ccccc3c1)OCCCc1c(C(=O)O)n(C)c3c-2c(Cl)ccc13 [AZD5991] (first compound max 1 µM, 7x7, partner max 1 µM) ?
0.0012

Now the compound Cc1c2c(nn1C)CSCc1cc(n(C)n1)CSc1cc(c3ccccc3c1)OCCCc1c(C(=O)O)n(C)c3c-2c(Cl)ccc13 [AZD5991] + CS(=O)(=O)CCNCc1ccc(-c2ccc3ncnc(Nc4ccc(OCc5cccc(F)c5)c(Cl)c4)c3c2)o1 [Lapatinib] (first compound max 1 µM, 7x7, partner max 10 µM)
0.0118

---

Tested on: CADO-ES1 (Ewing's Sarcoma)
protocol.details: Bliss excess, mean over the matrix (fraction); higher = more synergy
Each entry below carries its recorded Bliss excess.

* Cc1c2c(nn1C)CSCc1cc(n(C)n1)CSc1cc(c3ccccc3c1)OCCCc1c(C(=O)O)n(C)c3c-2c(Cl)ccc13 [AZD5991] + CN(C)CCCOc1ccc(-c2ccc3ncc4c(c3c2)n(C2CCOCC2)c(=O)n4C)cn1 [AZD0156] (first compound max 1 µM, 7x7, partner max 1 µM) | -0.0098

I would be grateful if you could share the reported Bliss excess for CCN(CCO)CCCOc1ccc2c(Nc3cc(CC(=O)Nc4cccc(F)c4)[nH]n3)ncnc2c1 [AZD2811] + C[C@@H]1COCCN1C2=NC(=NC(=C2)C3(CC3)[S@](=N)(=O)C)C4=C5C=CNC5=NC=C4 [AZD6738] (first compound max 1 µM, 7x7, partner max 10 µM) .
-0.012

What do you have for CN(CCO)CC[C@H](CSc1ccccc1)Nc1ccc(S(=O)(=O)NC(=O)c2ccc(N3CCC([C@@H](O)c4ccccc4-c4ccc(Cl)cc4)CC3)cc2)cc1S(=O)(=O)C(F)(F)F [AZD4320] + CN(C)CCCOc1ccc(-c2ccc3ncc4c(c3c2)n(C2CCOCC2)c(=O)n4C)cn1 [AZD0156] (first compound max 1 µM, 7x7, partner max 1 µM) ?
0.0269

Subsequent entry: Cc1cc2ncnn2cc1Nc1ncc2c(n1)n(C1CCOCC1)c(=O)n2C [AZD7648] + CCN(CCO)CCCOc1ccc2c(Nc3cc(CC(=O)Nc4cccc(F)c4)[nH]n3)ncnc2c1 [AZD2811] (first compound max 10 µM, 7x7, partner max 1 µM)
0.0236
